- Test system: HCT-8
- Protocol Summary: Antiproliferative activity against human HCT8 cells by MTT assay
- Type: functional, cell-based
Quantity Measured: pIC50
Answers are plain numbers, as −log10 of the molar value.

Enquiry: // query pIC50 value for entry CC1(C)CC[C@]23CO[C@@]4(CC[C@@H]5[C@@]6(C)CC[C@H](O[C@@H]7OC[C@H](O[C@@H]8O[C@H](CO)[C@@H](O)[C@H](O)[C@H]8O[C@@H]8OC[C@@H](O)[C@H](O)[C@H]8O)[C@H](O)[C@H]7O[C@@H]7O[C@H](CO)[C@@H](O)[C@H](O)[C@H]7O)C(C)(C)[C@@H]6CC[C@@]5(C)[C@]4(C)C[C@H]2O)[C@@H]3C1 [LYSIKOKIANOSIDE 1]
Return: 5.00

====

- Tested on: HCT-8
- Protocol Summary: Antiproliferative activity against human HCT8 cells by MTT assay
- Assay type: functional, cell-based
Quantity Measured: pIC50
Numbers only, as −log10 of the molar value.

Observe how each entry below is paired with its result.
1. CC(=O)OC[C@H]1O[C@@H](O[C@H]2[C@H](O[C@H]3CC[C@]4(C)[C@H]5CC[C@]67OC[C@@]8(CCC(C)(C)C[C@H]86)[C@H](O)C[C@@]7(C)[C@]5(C)CC[C@H]4C3(C)C)OC[C@H](O[C@@H]3O[C@H](CO)[C@@H](O)[C@H](O[C@@H]4O[C@@H](C)[C@H](O)[C@@H](O)[C@H]4O)[C@H]3O[C@@H]3OC[C@@H](O)[C@H](O)[C@H]3O)[C@@H]2O)[C@H](O)[C@@H](O)[C@@H]1O : 5.03
2. C[C@@H]1O[C@@H](O[C@H]2[C@H](O)[C@@H](CO)O[C@@H](O[C@H]3CO[C@@H](O[C@H]4CC[C@]5(C)[C@H]6CC[C@]78OC[C@@]9(CC[C@](C)(C=O)C[C@H]97)[C@H](O)C[C@@]8(C)[C@]6(C)CC[C@H]5C4(C)C)[C@H](O[C@@H]4O[C@H](CO)[C@@H](O)[C@H](O)[C@H]4O)[C@H]3O)[C@@H]2O[C@@H]2OC[C@@H](O)[C@H](O[C@@H]3O[C@H](CO)[C@@H](O)[C@H](O)[C@H]3O)[C@H]2O)[C@H](O)[C@H](O)[C@H]1O : 5.70
3. CC1(C)[C@@H](O[C@@H]2OC[C@H](O[C@@H]3O[C@H](CO)[C@@H](O)[C@H](O)[C@H]3O[C@@H]3OC[C@@H](O)[C@H](O)[C@H]3O)[C@H](O)[C@H]2O)CC[C@]2(C)[C@H]3CC[C@]45OC[C@@]6(CC[C@](C)(C=O)C[C@H]64)[C@H](O)C[C@@]5(C)[C@]3(C)CC[C@@H]12 : 5.07

Enquiry: pIC50 of C[C@@H]1O[C@@H](O[C@H]2[C@H](O)[C@@H](CO)O[C@@H](O[C@H]3CO[C@@H](O[C@H]4CC[C@]5(C)[C@H]6CC[C@]78OC[C@@]9(CC[C@](C)(C=O)C[C@H]97)C(=O)C[C@@]8(C)[C@]6(C)CC[C@H]5C4(C)C)[C@H](O)[C@H]3O)[C@@H]2O[C@@H]2OC[C@@H](O)[C@H](O)[C@H]2O)[C@H](O)[C@H](O)[C@H]1O on HCT-8?
Return: 5.11
